Test system: human erythrocytes
TEST_PROTOCOL: Hemolytic activity
Assay type: cell-based
Experimental: Serial dilutions of the peptides in saline were prepared in round bottom microtitre plates using 100 μL volumes. Red blood cells were diluted with saline to 1/25 packed volume of cells and 50 μL added to each well. Plates were incubated with rocking at 37° C., and the concentration required for complete lysis determined visually after 4 h.
Where a SMILES comes first, the peptide text is derived from it. [ ]: non-standard residue; d: D form. Orn = NCCC[C@H](N)C(=O)O
MEASURE: Hemolytic activity: peptide concentration for 100% lysis of human erythrocytes

molecule CC(C)C[C@@H]1NC(=O)[C@H](CCCN)NC(=O)[C@H](C(C)C)NC(=O)[C@@H]2CCCN2C(=O)[C@@H](Cc2ccccc2)NC(=O)[C@H](CC(C)C)NC(=O)[C@H](CCCN)NC(=O)[C@H](C(C)C)NC(=O)[C@@H]2CCCN2C(=O)[C@@H](Cc2ccccc2)NC1=O [GS, cyclo(Val-Orn-Leu-D-Phe-Pro)2, reference compound] (cyclo(V[Orn]L[dF]PV[Orn]L[dF]P)) , Hemolytic activity: peptide concentration for 100% lysis of human erythrocytes observed: 12.5 µg/mL

Now turn to the next molecule.
molecule `CC(C)C[C@@H]1NC(=O)[C@H](CCCCN)NC(=O)[C@H](C)NC(=O)[C@@H]2CCCN2C(=O)[C@@H](Cc2ccc(O)cc2)NC(=O)[C@H](CC(C)C)NC(=O)[C@H](CCCCN)NC(=O)[C@H](C)NC(=O)[C@H](CCCCN)NC(=O)[C@H](CC(C)C)NC(=O)[C@@H]2CCCN2C(=O)[C@@H](Cc2ccc(O)cc2)NC(=O)[C@H](C)NC(=O)[C@@H](CCCCN)NC1=O` , Hemolytic activity: peptide concentration for 100% lysis of human erythrocytes observed: >800 µg/mL
